Where these numbers come from: PubChem BioAssay (NCI)

Here, each record is paired with measured TGI data.
Test system: SR leukemia
Assay: NCI tumour cell line growth inhibition, 48 h

Some solved entries appear below for comparison.
# input Name the recorded TGI for CN1CCC2(CC1)C(=O)N(N1CCCCCC1)C(=O)N2c1ccccc1 .
# output > 100 µM

# input Name the recorded TGI for CC(c1ccc(Br)cc1)C(C(=O)O)C(=O)O (stereo not drawn) .
# output > 100 µM

Kindly consider the entry below.
# input Name the recorded TGI for O=C1NC2(CCCCC2)N=C2C(Cl)CCCC12Cl (stereo not drawn) .
# output > 100 µM

###

Tested on: OVCAR-5 ovarian
Test: NCI tumour cell line growth inhibition, 48 h
measured_endpoint: TGI

# input Name the recorded TGI for Cc1cccc(Nc2cn(COCc3ccccc3)c(=O)[nH]c2=O)c1 .
# output > 100 µM

# input Name the recorded TGI for N#Cc1[nH]c(=O)n(-c2ccc(Cl)cc2)c1N .
# output > 10 µM

# input Name the recorded TGI for Cc1cc2[nH]c3c(C#N)c(-c4ccccc4)c(N=Nc4cccc(C(F)(F)F)c4)c(=O)n3c2cc1C .
# output > 100 µM

# input Name the recorded TGI for COc1ccc(-c2n[nH]nc2-c2csc3ccccc23)cc1OC .
# output > 100 µM

Next:
# input Name the recorded TGI for N#CCC(=O)Nn1c(CC#N)nnc1Cc1ccccc1 .
# output > 100 µM

# input Name the recorded TGI for O=C1c2ccccc2C(=O)N1c1ccc(S(=O)(=O)Nc2ncccn2)cc1 .
# output > 100 µM

# input Name the recorded TGI for c1ccc(C2SCC3=Nc4ccccc4CN32)cc1 (configuration not stated) .
# output > 100 µM

# input Name the recorded TGI for CC(c1ccc(Br)cc1)C(C(=O)O)C(=O)O (configuration not stated) .
# output > 100 µM

# input Name the recorded TGI for COc1cc(OC)c2c(=O)c(O)c(-c3ccc(OC)c(OC)c3)oc2c1 .
# output > 100 µM
